All values here come from patent US20260258084A1.

Target: T1, IL-23 receptor on the surface of HEK-Blue IL-23 cells (UniProt Q5VWK5 24-629, limits assumed)
T1 sequence (looked up): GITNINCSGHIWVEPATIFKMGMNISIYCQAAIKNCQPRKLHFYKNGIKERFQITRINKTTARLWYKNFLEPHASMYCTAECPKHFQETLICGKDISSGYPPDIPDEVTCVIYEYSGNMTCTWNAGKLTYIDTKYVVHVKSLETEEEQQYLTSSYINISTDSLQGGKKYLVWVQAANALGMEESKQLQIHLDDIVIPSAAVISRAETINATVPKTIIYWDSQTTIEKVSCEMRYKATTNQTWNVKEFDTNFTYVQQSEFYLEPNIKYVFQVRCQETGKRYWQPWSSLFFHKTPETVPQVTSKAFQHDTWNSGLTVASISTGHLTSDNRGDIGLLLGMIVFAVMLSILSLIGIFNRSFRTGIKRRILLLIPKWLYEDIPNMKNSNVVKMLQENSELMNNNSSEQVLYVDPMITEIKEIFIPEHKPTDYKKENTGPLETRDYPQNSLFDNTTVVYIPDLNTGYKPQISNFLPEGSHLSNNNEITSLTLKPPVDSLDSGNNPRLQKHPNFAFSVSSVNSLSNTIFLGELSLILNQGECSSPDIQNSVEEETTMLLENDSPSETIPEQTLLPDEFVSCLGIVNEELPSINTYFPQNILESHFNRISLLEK
Assay: cell-based or functional assay
Starred links: 1 amine or outer side, 2 acyl side, 3 side chain; linkers in the order of their positions; H or OH if unused. Positions of bridges follow the written chain, without caps; N, C: chain ends. Non-standard residues stand in square brackets, D forms with d. No end group written: not given here. Yde = (2S)-2-amino-3-[4-[2-(dimethylamino)ethoxy]phenyl]propanoic acid, CN(C)CCOc1ccc(C[C@H](N[*:1])C(=O)[*:2])cc1; Trp(7-Me) = Cc1cccc2c(C[C@H](N)C(=O)O)c[nH]c12; αMeLys(Me2) = CN(C)CCCC[C@](C)(N)C(=O)O; 2Nal = N[C@@H](Cc1ccc2ccccc2c1)C(=O)O; AEF = NCCOc1ccc(C[C@H](N)C(=O)O)cc1; 3Pal = N[C@@H](Cc1cccnc1)C(=O)O; Dad = desamino-aspartamic acid; Lys(Me) = CNCCCC[C@H](N)C(=O)O; αMeL = CC(C)C[C@](C)(N)C(=O)O; Nmapt = not defined here; Thp = NC1(C(=O)O)CCOCC1; Aib = CC(C)(N)C(=O)O; Ava = NCCCCC(=O)O; βAla = NCCC(=O)O; Sar = CNCC(=O)O
quantity.measured: pSTAT3 (nM)
Note: state the figure and append the unit.

// pSTAT3 (nM) lookup, key: [Dad]CNT[Trp(7-Me)]QC[Yde][2Nal][Aib]KN[3Pal]K-NH2 (lactam (positions not given here); disulfide 2-7; not fully specified (residue 14, bridges); printed as Dad(§1)-C(@2)-N-T-Wim-Q-C(@2)-Yde-Nal-Aib-K(§1)-N-Pal-K[Sema]-NH2) [Compound of SEQ ID NO: 71]
2.35 nM

Next binder up: [Dad]CNT[Trp(7-Me)]LC[Yde][2Nal][αMeLys(Me2)]KA[3Pal][Sar]-NH2 (lactam (positions not given here); disulfide 2-7; not fully specified (bridges); printed as Dad(§1)-C(@2)-N-T-Wim-L-C(@2)-Yde-Nal-MKdm-K(§1)-A-Pal-Sar-NH2) [Compound of SEQ ID NO: 155]
0.1 nM

Next binder up: [Ava]CNT[Trp(7-Me)]QC[Yde][2Nal][αMeL]EN[3Pal][Sar]-NH2 (lactam N-11; disulfide 2-7; SMILES Cc1cccc2c(C[C@@H]3NC(=O)[C@H]([C@@H](C)O)NC(=O)[C@H](CC(N)=O)NC(=O)[C@@H]4CSSC[C@H](NC(=O)[C@H](CCC(N)=O)NC3=O)C(=O)N[C@@H](Cc3ccc(OCCN(C)C)cc3)C(=O)N[C@@H](Cc3ccc5ccccc5c3)C(=O)N[C@@](C)(CC(C)C)C(=O)N[C@H](C(=O)N[C@@H](CC(N)=O)C(=O)N[C@@H](Cc3cccnc3)C(=O)N(C)CC(N)=O)CCC(=O)NCCCCC(=O)N4)c[nH]c12) [Compound of SEQ ID NO: 63]
0.2 nM

Next binder up: [Nmapt]CKWQC[AEF][2Nal][αMeL]EAG-NH2 (lactam N-10; disulfide 2-6; not fully specified (residue 3); printed as Nmapt(§1)-C(§3)(@2)-K[aAc](@3)-W-Q-C(@2)-Yae-Nal-Mle-E(§1)-A-G-NH2; reading uncertain; also: K3 acetylated (K[aAc]), acetyl site not given here, ε-NH2 takes the Cys2 bond) [Compound of SEQ ID NO: 18]
69.5 nM

Next binder up: [Ava]CNT[Trp(7-Me)]K(Ac)C[Yde][2Nal][αMeL]ENH[βAla]-NH2 (lactam N-11; disulfide 2-7; SMILES CC(=O)NCCCC[C@@H]1NC(=O)[C@H](Cc2c[nH]c3c(C)cccc23)NC(=O)[C@H]([C@@H](C)O)NC(=O)[C@H](CC(N)=O)NC(=O)[C@@H]2CSSC[C@H](NC1=O)C(=O)N[C@@H](Cc1ccc(OCCN(C)C)cc1)C(=O)N[C@@H](Cc1ccc3ccccc3c1)C(=O)N[C@@](C)(CC(C)C)C(=O)N[C@H](C(=O)N[C@@H](CC(N)=O)C(=O)N[C@@H](Cc1c[nH]cn1)C(=O)NCCC(N)=O)CCC(=O)NCCCCC(=O)N2) [Compound of SEQ ID NO: 50]
0.98 nM

Next binder up: [Ava]CNT[Trp(7-Me)]K(Ac)C[Yde][2Nal][αMeL]ENH-NH2 (lactam N-11; disulfide 2-7; SMILES CC(=O)NCCCC[C@@H]1NC(=O)[C@H](Cc2c[nH]c3c(C)cccc23)NC(=O)[C@H]([C@@H](C)O)NC(=O)[C@H](CC(N)=O)NC(=O)[C@@H]2CSSC[C@H](NC1=O)C(=O)N[C@@H](Cc1ccc(OCCN(C)C)cc1)C(=O)N[C@@H](Cc1ccc3ccccc3c1)C(=O)N[C@@](C)(CC(C)C)C(=O)N[C@H](C(=O)N[C@@H](CC(N)=O)C(=O)N[C@@H](Cc1c[nH]cn1)C(N)=O)CCC(=O)NCCCCC(=O)N2) [Compound of SEQ ID NO: 22]
1.37 nM

Next binder up: [Ava]CNT[Trp(7-Me)]LC[Yde][2Nal][Thp]EN[3Pal][Sar]-NH2 (lactam N-11; disulfide 2-7; SMILES Cc1cccc2c(C[C@@H]3NC(=O)[C@H]([C@@H](C)O)NC(=O)[C@H](CC(N)=O)NC(=O)[C@@H]4CSSC[C@H](NC(=O)[C@H](CC(C)C)NC3=O)C(=O)N[C@@H](Cc3ccc(OCCN(C)C)cc3)C(=O)N[C@@H](Cc3ccc5ccccc5c3)C(=O)NC3(CCOCC3)C(=O)N[C@H](C(=O)N[C@@H](CC(N)=O)C(=O)N[C@@H](Cc3cccnc3)C(=O)N(C)CC(N)=O)CCC(=O)NCCCCC(=O)N4)c[nH]c12) [Compound of SEQ ID NO: 24]
0.59 nM

Next binder up: [Ava]CNT[Trp(7-Me)]QC[Yde][2Nal][Aib]EN[3Pal][Sar]-NH2 (lactam N-11; disulfide 2-7; SMILES Cc1cccc2c(C[C@@H]3NC(=O)[C@H]([C@@H](C)O)NC(=O)[C@H](CC(N)=O)NC(=O)[C@@H]4CSSC[C@H](NC(=O)[C@H](CCC(N)=O)NC3=O)C(=O)N[C@@H](Cc3ccc(OCCN(C)C)cc3)C(=O)N[C@@H](Cc3ccc5ccccc5c3)C(=O)NC(C)(C)C(=O)N[C@H](C(=O)N[C@@H](CC(N)=O)C(=O)N[C@@H](Cc3cccnc3)C(=O)N(C)CC(N)=O)CCC(=O)NCCCCC(=O)N4)c[nH]c12) [Compound of SEQ ID NO: 62]
0.2 nM

Next binder up: [Dad]CNTWQC[Yde][2Nal][Aib][Lys(Me)]NN-NH2 (lactam N-11; disulfide 2-7) [Compound of SEQ ID NO: 25]
39.2 nM
